# SYSTEM_NAME: Serine/threonine-protein kinase Chk1 (Homo sapiens) (UniProt O14757)
# Sequence (whole entry): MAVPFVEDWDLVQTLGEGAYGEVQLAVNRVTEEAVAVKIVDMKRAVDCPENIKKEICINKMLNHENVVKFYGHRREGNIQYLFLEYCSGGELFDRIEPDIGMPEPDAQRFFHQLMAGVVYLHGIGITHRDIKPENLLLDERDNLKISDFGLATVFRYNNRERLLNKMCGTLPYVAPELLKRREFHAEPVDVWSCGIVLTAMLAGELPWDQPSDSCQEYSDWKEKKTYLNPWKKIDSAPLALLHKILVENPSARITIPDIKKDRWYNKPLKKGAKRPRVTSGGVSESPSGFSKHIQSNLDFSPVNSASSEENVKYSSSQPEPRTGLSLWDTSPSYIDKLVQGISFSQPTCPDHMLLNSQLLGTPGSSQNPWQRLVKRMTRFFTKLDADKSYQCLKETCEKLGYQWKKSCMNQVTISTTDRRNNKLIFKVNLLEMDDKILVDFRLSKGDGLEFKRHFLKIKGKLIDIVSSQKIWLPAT
# ASSAY_PROTOCOL: Inhibition of human Chk1 expressed in sf9-baculovirus system at 10 uM
Give inhibition for every item shown.
Give a bare numeral; the unit % is implied.

// assay Serine/threonine-protein kinase Chk1 (Homo sapiens) (UniProt O14757), entry `CN1C(=O)c2c(c3c4cnccc4[nH]c3c3[nH]c4cc(OCc5ccccc5)ccc4c23)C1=O` , inhibition value = 27

Observed inhibition on Serine/threonine-protein kinase Chk1 (Homo sapiens) (UniProt O14757), entry `CN1C(=O)c2c(c3c4cc(O)ccc4[nH]c3c3[nH]c4ccncc4c23)C1=O` , equals 38.5

// returns inhibition for `O=C1NC(=O)c2c1c1c3cnccc3[nH]c1c1[nH]c3ccc(O)cc3c21` with Serine/threonine-protein kinase Chk1 (Homo sapiens) (UniProt O14757); value = 99.1

With Serine/threonine-protein kinase Chk1 (Homo sapiens) (UniProt O14757) as the test system, `CN(C)CCN1C(=O)c2c(c3c4cnccc4[nH]c3c3[nH]c4cc(OCc5ccccc5)ccc4c23)C1=O` showed inhibition of 32.7

Form: item `O=C1NC(=O)c2c1c1c3cnccc3[nH]c1c1[nH]c3ccc(OCc4ccccc4)cc3c21` ; test system Serine/threonine-protein kinase Chk1 (Homo sapiens) (UniProt O14757); inhibition: 90.6

Response field inhibition (Serine/threonine-protein kinase Chk1 (Homo sapiens) (UniProt O14757)) for item `O=C1NC(=O)c2c1c1c3ccc(O)cc3[nH]c1c1[nH]c3ccncc3c21` : 98.7

Short answer on Serine/threonine-protein kinase Chk1 (Homo sapiens) (UniProt O14757) for `O=C1NC(=O)c2c1c1c3ccc(OCc4ccccc4)cc3[nH]c1c1[nH]c3ccncc3c21` , inhibition: 95.9

Sample `CN(C)CCN1C(=O)c2c(c3c4cc(OCc5ccccc5)ccc4[nH]c3c3[nH]c4ccncc4c23)C1=O` , system: Serine/threonine-protein kinase Chk1 (Homo sapiens) (UniProt O14757). Its inhibition is 17.6

Lab entry: Serine/threonine-protein kinase Chk1 (Homo sapiens) (UniProt O14757) assay, molecule `O=C1NC(=O)c2c1c1c3ccccc3[nH]c1c1[nH]c3ccncc3c21` , inhibition = 98.6
